Tested on: MDA-MB-231 (breast)
Assay: In vitro MTT (proliferation) assay
Type: cell-based
Details: MTT (proliferation) assay, MDA-MB-231 cancer cell line
Provide the recorded IC50 for the entries that follow.
Lab book: enter the figure in µM, no units written.

Incoming: Output measured IC50 for this item: `COc1cc2c(Oc3ccc4[nH]c(C)cc4c3F)ccnc2cc1OCC1(N)CC1.Cl.Cl.O`
Outgoing: 5.71

Incoming: Output measured IC50 for this item: `COc1cc2c(Oc3ccc4[nH]c(C)cc4c3F)ccnc2cc1OCC1(N)CC1`
Outgoing: 5.56

Incoming: Output measured IC50 for this item: `COc1cc2c(Oc3ccc4[nH]c(C)cc4c3F)ccnc2cc1OCC1(N)CC1.O=C(O)CCC(=O)O`
Outgoing: 6.1

Incoming: Output measured IC50 for this item: `COc1cc2c(Oc3ccc4[nH]c(C)cc4c3F)ccnc2cc1OCC1(N)CC1.O=C(O)/C=C\C(=O)O.O=C(O)/C=C\C(=O)O`
Outgoing: 5.37
